- Test system: HCT-116
- protocol: NCI tumour cell line growth inhibition, 48 h
The source made the active and inactive calls. Cut-off read from the data, not from the text of the source: active = GI50 up to about 1.1 µM and inactive = higher.
observation-type: GI50

Observe how each entry below is paired with its result.
compound	measurement-target	GI50
COc1cc(CCc2cccnc2)cc(OC)c1OC	HCT-116	> 100 µM (inactive)
CCOC(=O)C1=NN(c2ccccc2)C(=O)/C1=C\NC(=S)C(N)=S	HCT-116	20.5 µM (inactive)
CCN(CC)/[N+]([O-])=N/OCOC	HCT-116	> 100 µM (inactive)

Task item: Can you share its GI50? I mean this compound: `CCOc1cccc2sc(N)nc12`
Reply: > 100 µM (inactive)

Task item: Let us now turn to `Cn1c(=O)oc2cc(C(=O)CN3CCN(Cc4ccc5c(c4)OCO5)CC3)c(Cl)cc21`
Reply: > 100 µM (inactive)

Task item: Another: NC(=O)C(=O)N/N=C1\C(=O)N(c2ccc(Cl)cc2Cl)C(=O)C1C(=O)Nc1ccc(Cl)cc1Cl (configuration not stated)
Reply: > 100 µM (inactive)

Task item: Here is the next compound: `CCNC(=O)COc1ccc(Cl)cc1Cl`
Reply: > 100 µM (inactive)

Task item: Field entry: Cn1c(C(C#N)c2cc(Cl)ncn2)nc2ccccc21 (configuration not stated)
Reply: > 100 µM (inactive)

Task item: Would you kindly repeat that for COc1cc(OC)c2c(c1)OC(c1cccnc1)C(c1ccccc1)C2=O (configuration not stated) ?
Reply: > 100 µM (inactive)

Task item: Now give it for `CN(C)CC(C)(C)CN1c2ccccc2Sc2ccccc21` too.
Reply: 13.8 µM (inactive)

Task item: Another compound to check: `O=C(O)/C(O)=C\C(=O)c1ccc(Br)cc1`
Reply: > 100 µM (inactive)

Task item: Now the same for `Cc1ccc(NC(=O)NC23CC4CC(CC(F)(C4)C2)C3)cc1`
Reply: 41.3 µM (inactive)

* * *

- Test system: DMS-114
- protocol: NCI tumour cell line growth inhibition, 48 h
Active and inactive are the calls of the source. Cut-off read from the data, not from the text of the source: active = GI50 up to about 1.1 µM and inactive = higher.
Reported GI50 is given for each of the following compounds.

smiles-data	observation-type	val
Cc1ccccc1NC(=O)/C=N/O	GI50	> 100 µM (inactive)
O=C1c2ccccc2C(=O)N1Cc1ccccc1-c1c2nc(c(-c3ccccc3CN3C(=O)c4ccccc4C3=O)c3ccc([nH]3)c(-c3ccccc3CN3C(=O)c4ccccc4C3=O)c3nc(c(-c4ccccc4CN4C(=O)c5ccccc5C4=O)c4ccc1[nH]4)C=C3)C=C2	GI50	> 100 µM (inactive)
O=C(COc1ccc(Cl)cc1)N1CCN(C(=O)COc2ccc(Cl)cc2)c2ccccc21	GI50	29.5 µM (inactive)
CC(C)[C@H](COC(C)(C)C)/N=C/N1CSc2ccccc21	GI50	21.8 µM (inactive)
COc1ccc(/C=N/N=C(\N)NO)c(Cl)c1O	GI50	5.9 µM (inactive)
CCOc1ccc(/C(Cl)=C(\C=O)c2ccc(OC)c(OC)c2)cc1OCC	GI50	11 µM (inactive)

Task item: Suppose we examine the compound `COc1cc2c(c(OC)c1OC)-c1ccc(SC)c(=O)cc1[C@@H](NCc1ccc(C#N)cc1)CC2` ; what GI50 value has been reported?
Reply: 0.00236 µM (active)

Task item: And what about the compound `COc1cc(CCc2cccnc2)cc(OC)c1OC` ?
Reply: 77.4 µM (inactive)

Task item: Same question, `COc1cc2c(cc1OC)[C@@H]([C@H](O)c1ccccc1)NCC2` this time
Reply: > 100 µM (inactive)
